Molecular target: Jak2 (a.a. 828-1132) (Homo sapiens, UniProt O60674)
Construct: Jak2 (a.a. 828-1132); His tag (N); made in house; host or cells: insect cells (baculovirus)
Sequence (O60674 828-1132): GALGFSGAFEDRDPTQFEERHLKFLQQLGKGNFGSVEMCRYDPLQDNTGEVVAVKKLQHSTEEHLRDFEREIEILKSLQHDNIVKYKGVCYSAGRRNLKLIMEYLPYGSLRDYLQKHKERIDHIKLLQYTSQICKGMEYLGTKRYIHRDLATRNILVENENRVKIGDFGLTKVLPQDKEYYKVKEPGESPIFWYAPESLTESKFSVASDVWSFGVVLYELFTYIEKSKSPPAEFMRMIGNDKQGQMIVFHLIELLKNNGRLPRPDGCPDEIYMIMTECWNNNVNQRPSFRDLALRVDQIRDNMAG
Assay: In vitro JAK kinase assay (HTRF, phosphorylation of biotinylated peptide), JAK2
Format: biochemical
Conditions: 1 mM ATP; Examples 92-162; read-out: JAK2 IC50 (nM) @ 1 mM ATP
Structures can show the parent of a compound that is named as a salt.
metricName: IC50

Examples with answers:
# compound, IC50
data = [
    ("COc1ccc(OC)c(S(=O)(=O)N2CCCN(CC(CC#N)n3cc(-c4ncnc5[nH]ccc45)cn3)CC2)c1 (stereo not drawn)", "50 to 100 nM"),
    ("N#CCC(CN1CCN(C(=O)c2ccc(C#N)cc2F)CC1CO)n1cc(-c2ncnc3[nH]ccc23)cn1 (single isomer, unassigned) [156—peak 3, trifluoroacetate Salt]", "> 100 nM"),
    ("Cc1c(Nc2cc(F)ccc2F)ncnc1N1CCC(C(CC#N)n2cc(-c3ncnc4[nH]ccc34)cn2)CC1 (stereo not drawn)", "> 100 nM"),
    ("CCC(CN1CCN(C(=O)c2ccccc2O)CC1)n1cc(-c2ncnc3[nH]ccc23)cn1 (stereo not drawn)", "50 to 100 nM"),
    ("N#CCC(CN1CCCN(C(=O)c2ccccc2F)CC1)n1cc(-c2ncnc3[nH]ccc23)cn1 (stereo not drawn)", "> 100 nM"),
]

So what's the measured IC50 for this one? N#CCC(CN1CCN(C(=O)c2ccc(C#N)cc2F)CC1C(F)F)n1cc(-c2ncnc3[nH]ccc23)cn1 (single isomer, unassigned) [Example 159—peak 2] 50 to 100 nM

###

Catalogue of IC50 readings, one per entry.
Molecular target: Jak2 (a.a. 828-1132) (Homo sapiens)
Construct: Jak2 (a.a. 828-1132); His tag (N); made in house; host or cells: insect cells (baculovirus)
Experiment: In vitro JAK kinase assay (HTRF, phosphorylation of biotinylated peptide), JAK2
Format: biochemical
Settings: 1 mM ATP; Examples 92-162; read-out: JAK2 IC50 (nM) @ 1 mM ATP
Structures can show the parent of a compound that is named as a salt.

# compound, IC50
measured = [
    ("Cc1c(Nc2cccc(F)c2)ncnc1N1CCC(C(CC#N)n2cc(-c3ncnc4[nH]ccc34)cn2)CC1 (centres unmarked)", "50 to 100 nM"),
    ("CCC(CN1CCN(S(=O)(=O)c2cccc(F)c2)CC1)n1cc(-c2ncnc3[nH]ccc23)cn1 (centres unmarked)", "20 to 50 nM"),
    ("Cc1ccccc1S(=O)(=O)N1CCCN(CC(CC#N)n2cc(-c3ncnc4[nH]ccc34)cn2)CC1 (centres unmarked)", "50 to 100 nM"),
    ("Cc1cc(Cl)ccc1C(=O)N1CCCN(CC(CC#N)n2cc(-c3ncnc4[nH]ccc34)cn2)CC1 (centres unmarked)", "> 100 nM"),
    ("CC(CN1CCN(C(=O)c2ccc(F)cc2F)CC1)n1cc(-c2ncnc3[nH]ccc23)cn1 (centres unmarked) [Example 95, bis(trifluoroacetate)]", "> 100 nM"),
    ("N#CCC(CN1CCCN(S(=O)(=O)c2ccccc2C#N)CC1)n1cc(-c2ncnc3[nH]ccc23)cn1 (centres unmarked)", "50 to 100 nM"),
]

So what's the measured IC50 for this one? Cc1c(Nc2ccc(F)c(F)c2)ncnc1N1CCC(C(CC#N)n2cc(-c3ncnc4[nH]ccc34)cn2)CC1 (centres unmarked) < 20 nM

So what does the record say about IC50 for Cc1c(Nc2c(F)cccc2F)ncnc1N1CCC(C(CC#N)n2cc(-c3ncnc4[nH]ccc34)cn2)CC1 (centres unmarked) ? 50 to 100 nM

Find the recorded IC50 belonging to N#CCC(CN1CCN(C(=O)c2ccc(C#N)cc2F)CC1CO)n1cc(-c2ncnc3[nH]ccc23)cn1 (single isomer, unassigned) [156—peak 2, trifluoroacetate Salt] and report it. > 100 nM

Requested read-out: IC50. Entry: N#CCC(CN1CCCN(C(=O)c2ccc(Cl)cc2)CC1)n1cc(-c2ncnc3[nH]ccc23)cn1 (centres unmarked) > 100 nM

Find the recorded IC50 belonging to N#CCC(CN1CCCN(C(=O)c2ccc(Cl)cc2Cl)CC1)n1cc(-c2ncnc3[nH]ccc23)cn1 (centres unmarked) and report it. > 100 nM

// lookup IC50 for CCC(CN1CCN(S(=O)(=O)c2ccccc2Cl)CC1)n1cc(-c2ncnc3[nH]ccc23)cn1 (centres unmarked) 20 to 50 nM

// IC50 lookup, key: N#CCC(CN1CCN(C(=O)c2ccc(C#N)cc2F)CC1CF)n1cc(-c2ncnc3[nH]ccc23)cn1 (single isomer, unassigned) > 100 nM

Please look up its IC50: CCC(CN1CCN(C(=O)c2ccc(F)cc2F)CC1)n1cc(-c2ncnc3[nH]ccc23)cn1 (centres unmarked) 20 to 50 nM

All figures here come from patent US9249145B2.
